Target: T1, GST-Dvl2PDZ fusion protein (human, UniProt O14641 248-364)
T1 construct: range 248-364; Made with the pGEX E. coli expression system; also called GST-PDZ fusion protein; not shown: glutathione S-transferase (GST) encoded by plasmid pGEX
T1 sequence (looked up): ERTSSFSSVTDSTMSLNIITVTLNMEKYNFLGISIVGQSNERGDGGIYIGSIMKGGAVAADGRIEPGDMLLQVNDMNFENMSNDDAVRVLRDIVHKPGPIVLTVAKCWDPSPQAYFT
Assay: phage display selection on GST-Dvl2PDZ
Description: The libraries were cycled through rounds of binding selection with a GST-Dvl2PDZ fusion protein coated on 96-well Maxisorp immunoplates as the capture target. Phage were propagated in E. coli XL1-blue with M13-KO7 helper phage and 10 μM IPTG. After four rounds of binding selection, individual phage clones were analyzed in a high-throughput phage ELISA, and positive clones were subjected to DNA sequence analysis. […]
Recorded Metric: binding result

{"Binder": "GEMWVDGPCL [SEQ ID NO 151]", "binding result": "binds"}
{"Binder": "TWMDYGWLDQGG [SEQ ID NO 87]", "binding result": "binds"}
{"Binder": "PEVWIDGPEI [SEQ ID NO 149]", "binding result": "binds"}
{"Binder": "FTWRDYGWLDGGG [SEQ ID NO 84]", "binding result": "binds"}

Prompt: Which binding result value is on record for TRFTNYGWLDGGG [SEQ ID NO 75] ?
Completion: binds

Prompt: Follow-up item: TVVWHDYGWIGGG [SEQ ID NO 44]
Completion: binds

Prompt: Follow-up item: AMFHEYGWIDGGG [SEQ ID NO 110]
Completion: binds

Prompt: Follow-up item: SEWKNYGYIGGG [SEQ ID NO 62]
Completion: binds

Prompt: Follow-up item: EMDLLWTDIP [SEQ ID NO 132]
Completion: binds

Prompt: Follow-up item: SLQWYGWIDSGG [SEQ ID NO 93]
Completion: binds

Prompt: Follow-up item: ITDYGWVDGPG [SEQ ID NO 97]
Completion: binds

Prompt: Follow-up item: SIVLWSDIPS [SEQ ID NO 135]
Completion: binds

Prompt: Follow-up item: WVEYGWIDSGG [SEQ ID NO 83]
Completion: binds

Prompt: Follow-up item: QAVYKNYGWIGGG [SEQ ID NO 41]
Completion: binds

Prompt: Follow-up item: DRIRFLGWF [SEQ ID NO 14]
Completion: binds

Prompt: Follow-up item: QTIWKDYGIIGGG [SEQ ID NO 45]
Completion: binds
